- experimental.target: T1, human TRBC2 (hTRBC2), construct BIM0445 (human, UniProt A0A5B9 1-129, limits assumed)
- T1 construct: also called BIM0445 (hTRBC2)
- T1 sequence (A0A5B9 1-129 limits assumed): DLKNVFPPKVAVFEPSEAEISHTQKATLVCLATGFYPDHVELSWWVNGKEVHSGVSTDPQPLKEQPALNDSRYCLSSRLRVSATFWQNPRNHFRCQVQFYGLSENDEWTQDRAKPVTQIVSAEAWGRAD
- test.description: SPR (BIAcore T200), antibody captured via anti-human Fc
observation.type: binding result

Would you mind telling me what binding result value was observed for BJM0578 (bivalent) (antibody, V domains shown, Bivalent construct with a human Fc) VH: QVQLVQSGAEVKKPGSSVKVSCKASGYTFTGYVMHWVRQAPGQGLEWMGFIIPIFGTANYAQKFQGRVTITSDKSTTTAYMELSSLRSEDTAVYYCARGAGYNFDGAYRFFDFWGQGTLVTVSS VL: DVVMTQSPLSLPVTLGQPASISCRSSQRLVHSNGNTYLHWYQQRPGQSPRLLIYRVSNRFPGVPDRFSGSGSGTDFTLKISRVEAEDVGVYFCSQSTHVPYTFGGGTKVEIK ? no binding

# binding result lookup, item BKM0196 (single arm) (antibody, V domains shown, Single arm anti-TRBC1 construct with human Fc; also called N28G N30S) VH: QVQLVQSGAEVKKPGSSVKVSCKASGYTFTGYVMHWVRQAPGQGLEWMGFIIPIFGTANYAQKFQGRVTITSDKSTTTAYMELSSLRSEDTAVYYCARGAGYNFDGAYRFFDFWGQGTLVTVSS VL: DVVMTQSPLSLPVTLGQPASISCRSSQRLVHSGGSTYLHWYQQRPGQSPRLLIYRVSNRFPGVPDRFSGSGSGTDFTLKISRVEAEDVGVYFCSQSTHVPYTFGGGTKVEIK no binding

Need binding result, item BKM0194 (single arm) (antibody, V domains shown, Single arm anti-TRBC1 construct with human Fc; also called N28G) VH: QVQLVQSGAEVKKPGSSVKVSCKASGYTFTGYVMHWVRQAPGQGLEWMGFIIPIFGTANYAQKFQGRVTITSDKSTTTAYMELSSLRSEDTAVYYCARGAGYNFDGAYRFFDFWGQGTLVTVSS VL: DVVMTQSPLSLPVTLGQPASISCRSSQRLVHSGGNTYLHWYQQRPGQSPRLLIYRVSNRFPGVPDRFSGSGSGTDFTLKISRVEAEDVGVYFCSQSTHVPYTFGGGTKVEIK no binding

The reported numbers originate from patent US20230357395A1.
